target: HER2 (Homo sapiens, UniProt P04626); construct: human HER2 amino acids 679-1255; assay: Radioisotope assay for HER2; details: read-out: HER2/ErB2 IC50 grading
Sequence (P04626 679-1255): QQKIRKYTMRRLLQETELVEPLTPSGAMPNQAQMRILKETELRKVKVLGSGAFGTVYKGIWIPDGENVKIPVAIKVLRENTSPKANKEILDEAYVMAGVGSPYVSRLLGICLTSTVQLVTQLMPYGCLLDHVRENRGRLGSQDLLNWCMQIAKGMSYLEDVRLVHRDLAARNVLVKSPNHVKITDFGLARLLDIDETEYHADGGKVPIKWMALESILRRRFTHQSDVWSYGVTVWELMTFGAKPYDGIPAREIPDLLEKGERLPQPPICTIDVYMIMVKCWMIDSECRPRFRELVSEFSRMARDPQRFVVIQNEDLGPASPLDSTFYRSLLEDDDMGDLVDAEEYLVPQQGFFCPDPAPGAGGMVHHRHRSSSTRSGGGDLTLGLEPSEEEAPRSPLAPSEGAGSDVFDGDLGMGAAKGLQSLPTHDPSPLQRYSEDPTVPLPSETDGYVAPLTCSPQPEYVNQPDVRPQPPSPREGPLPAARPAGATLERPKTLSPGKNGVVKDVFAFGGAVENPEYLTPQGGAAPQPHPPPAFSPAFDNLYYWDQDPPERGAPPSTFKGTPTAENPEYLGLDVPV
pIC50: −log10 of the molar value.
This listing pairs compounds with measured pIC50.

mol	assay.target	pIC50
COc1cc2ncnc(N[C@H](C)c3ccccc3)c2cc1OCCCCCCC(=O)NO	HER2 (Homo sapiens, UniProt P04626)	6.00 to 7.00
COCCOc1cc2ncnc(Nc3ccc(F)c(Cl)c3)c2cc1OCCCCCCC(=O)NO	HER2 (Homo sapiens, UniProt P04626)	6.00 to 7.00
O=C(CCCCCCOc1ccc2ncnc(Nc3ccc(F)c(Cl)c3)c2c1)NO	HER2 (Homo sapiens, UniProt P04626)	6.00 to 7.00
COc1cc2c(Nc3ccc(F)c(Cl)c3)ncnc2cc1OCCCCCCC(=O)NO	HER2 (Homo sapiens, UniProt P04626)	6.00 to 7.00
COc1cc2ncnc(Nc3ccc(F)c(Cl)c3)c2cc1SCCCCCCC(=O)NO	HER2 (Homo sapiens, UniProt P04626)	> 7.00
O=C(CCCCCNCc1ccc(-c2ccc3ncnc(Nc4ccc(OCc5cccc(F)c5)c(Cl)c4)c3c2)o1)NO	HER2 (Homo sapiens, UniProt P04626)	> 7.00
O=C(CCCCCCCNCc1ccc(-c2ccc3ncnc(Nc4ccc(OCc5cccc(F)c5)c(Cl)c4)c3c2)o1)NO	HER2 (Homo sapiens, UniProt P04626)	> 7.00
COCCOc1cc2ncnc(Nc3ccc(OCc4cccc(F)c4)c(Cl)c3)c2cc1OCCCCCCC(=O)NO	HER2 (Homo sapiens, UniProt P04626)	> 7.00
C#Cc1cccc(Nc2ncnc3cc(O)c(OCCCCCCC(=O)NO)cc23)c1	HER2 (Homo sapiens, UniProt P04626)	> 7.00

Where these numbers come from: patent US8604044B2
